Tested on: Streptococcus pyogenes
Experiment: Antimicrobial activity against Streptococcus pyogenes MTCC 442 after 24 and 48 hr by serial broth dilution method
Format: functional
Assay readout: MIC (µg/mL)

Solved cases (3 shown):
- Compound: "O=C(/C=C/c1cccc(Cl)c1)N1N=C(c2ccc([N+](=O)[O-])cc2)OC1c1cc2ccccc2nc1Cl (stereo not drawn)"
  Assay readout: "MIC"
  Unit string: "µg/mL"
  Reported value: 100
- Compound: "COc1ccc(/C=C/C(=O)N2N=C(c3ccc([N+](=O)[O-])cc3)OC2c2cc3ccccc3nc2Cl)cc1 (stereo not drawn)"
  Assay readout: "MIC"
  Unit string: "µg/mL"
  Reported value: 100
- Compound: "O=C(/C=C/c1cccc([N+](=O)[O-])c1)N1N=C(c2ccc([N+](=O)[O-])cc2)OC1c1cc2ccccc2nc1Cl (stereo not drawn)"
  Assay readout: "MIC"
  Unit string: "µg/mL"
  Reported value: 100

[I] O=C(/C=C/c1ccc([N+](=O)[O-])cc1)N1N=C(c2ccc([N+](=O)[O-])cc2)OC1c1cc2ccccc2nc1Cl (stereo not drawn)
[II] O=C(/C=C/c1ccccc1O)N1N=C(c2ccc([N+](=O)[O-])cc2)OC1c1cc2ccccc2nc1Cl (stereo not drawn)
[III] O=C(/C=C/c1cccc(O)c1)N1N=C(c2ccc([N+](=O)[O-])cc2)OC1c1cc2ccccc2nc1Cl (stereo not drawn)
Ascending sort, MIC. // list labels; follow requested order
III, II, I
(III: 100 µg/mL, II: 250 µg/mL, I: 500 µg/mL)

[I] COc1cc(/C=C/C(=O)N2N=C(c3ccc([N+](=O)[O-])cc3)OC2c2cc3ccccc3nc2Cl)cc(OC)c1OC (stereo not drawn)
[II] Cc1ccc(/C=C/C(=O)N2N=C(c3ccc([N+](=O)[O-])cc3)OC2c2cc3ccccc3nc2Cl)cc1 (stereo not drawn)
// which entry reports the smaller MIC, I or II ? Identify your selection by its label.
II

[I] O=C(/C=C/c1ccccc1Cl)N1N=C(c2ccc([N+](=O)[O-])cc2)OC1c1cc2ccccc2nc1Cl (stereo not drawn)
[II] O=C(/C=C/c1ccccc1[N+](=O)[O-])N1N=C(c2ccc([N+](=O)[O-])cc2)OC1c1cc2ccccc2nc1Cl (stereo not drawn)
Endpoint returns the identifier whose MIC is numerically larger, either I or II . Mark your selection by writing its label.
I
(I: 500 µg/mL, II: 200 µg/mL)

* * *

Test system: Aspergillus clavatus
Assay: Antimicrobial activity against Aspergillus clavatus MTCC 1323
Format: functional
Assay readout: MIC (µg/mL)

- Compound: "O=C(/C=C/c1cccc(O)c1)N1N=C(c2ccc([N+](=O)[O-])cc2)OC1c1cc2ccccc2nc1Cl (stereo not drawn)"
  Assay target: "Aspergillus clavatus"
  MIC (µg/mL): 100
- Compound: "O=C(/C=C/c1ccc([N+](=O)[O-])cc1)N1N=C(c2ccc([N+](=O)[O-])cc2)OC1c1cc2ccccc2nc1Cl (stereo not drawn)"
  Assay target: "Aspergillus clavatus"
  MIC (µg/mL): 100
- Compound: "O=C(/C=C/c1ccccc1O)N1N=C(c2ccc([N+](=O)[O-])cc2)OC1c1cc2ccccc2nc1Cl (stereo not drawn)"
  Assay target: "Aspergillus clavatus"
  MIC (µg/mL): 500

[a] COC1=CC(=O)C[C@@H](C)[C@]12Oc1c(Cl)c(OC)cc(OC)c1C2=O
[b] O=C(/C=C/c1ccccc1Cl)N1N=C(c2ccc([N+](=O)[O-])cc2)OC1c1cc2ccccc2nc1Cl (stereo not drawn)
[c] O=C(/C=C/c1ccc(Cl)cc1)N1N=C(c2ccc([N+](=O)[O-])cc2)OC1c1cc2ccccc2nc1Cl (stereo not drawn)
# sort list by recorded MIC, greatest to least Sort and list the labels as requested.
c, b, a
(c: 1000 µg/mL, b: 500 µg/mL, a: 100 µg/mL)

[P] O=C(/C=C/c1cccc(Cl)c1)N1N=C(c2ccc([N+](=O)[O-])cc2)OC1c1cc2ccccc2nc1Cl (stereo not drawn)
[Q] COc1ccc(/C=C/C(=O)N2N=C(c3ccc([N+](=O)[O-])cc3)OC2c2cc3ccccc3nc2Cl)cc1 (stereo not drawn)
[R] Cc1ccc(/C=C/C(=O)N2N=C(c3ccc([N+](=O)[O-])cc3)OC2c2cc3ccccc3nc2Cl)cc1 (stereo not drawn)
Could you please sort these 3 entries by MIC from high to low? // ordering of labels required in reply
R, P, Q

[a] O=C(/C=C/c1cccc([N+](=O)[O-])c1)N1N=C(c2ccc([N+](=O)[O-])cc2)OC1c1cc2ccccc2nc1Cl (stereo not drawn)
[b] COc1cc(/C=C/C(=O)N2N=C(c3ccc([N+](=O)[O-])cc3)OC2c2cc3ccccc3nc2Cl)cc(OC)c1OC (stereo not drawn)
Between item a and item b , which reported MIC is smaller? In your reply, give the label of the chosen option.
b

[a] O=C(/C=C/c1ccc(O)cc1)N1N=C(c2ccc([N+](=O)[O-])cc2)OC1c1cc2ccccc2nc1Cl (stereo not drawn)
[b] O=C(/C=C/c1ccccc1[N+](=O)[O-])N1N=C(c2ccc([N+](=O)[O-])cc2)OC1c1cc2ccccc2nc1Cl (stereo not drawn)
Between the two listed entries a and b , which has its MIC at the higher number? Bench note: the answer is the label of the chosen record.
a
